All figures here come from PubChem BioAssay AID1159580.

Assay: chemical genetic growth profiling, strain panel (AID 1159580);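 also: tested at 20 µM; growth read once vehicle control cultures reached saturation at 30 °C; 1 = growth at the plate median or of vehicle wells; lower values mean less growth of the strain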
Conditions: S. cerevisiae deletion strains, growth OD, locus YJR066W, strain TOR1, hits give low values
The campaign covered roughly 5,500 compounds. About 2,000 (36%) were called active. Inconclusive results (about 18%) are left out. The list shows a part of the results.
Reported normalized growth by item:
Could you keep your reply to the number by itself?

Take a look at these entries with their results.
| COMPOUND | normalized growth |
| --- | --- |
| CNC(=O)O/N=C(\C)SC | 0.988 |
| Cc1c(C(=O)Sc2ccc(F)cc2F)sc2nc(C(F)(F)F)nn12 | 0.122 |
| NCCc1cnc[nH]1 | 0.985 |

// query Need normalized growth of C/C(Cc1nnn(-c2cc(C)on2)n1)=N/OC(=O)Nc1ccc(Cl)cc1 , thanks.
// result 0.992

// query Need normalized growth of Cc1[nH]c2ccccc2c1CN(C)C , thanks.
// result 0.906

// query Need normalized growth of COc1ccc(CN(CCN(C)C)c2ccccn2)cc1 , thanks.
// result 0.997

// query Need normalized growth of COc1ccc(-c2coc3cc(O)ccc3c2=O)cc1 , thanks.
// result 0.836

// query Need normalized growth of CN(C)CCN(Cc1ccccc1)c1ccccn1 , thanks.
// result 0.947

// query Need normalized growth of CCN1CCCC(OC(=O)C(c2ccccc2)c2ccccc2)C1 (configuration not stated) , thanks.
// result 0.955

// query Need normalized growth of Oc1c(Cl)cc(Cl)cc1C=Nc1nc(-c2ccc3ccccc3c2)cs1 , thanks.
// result 0.626

// query Need normalized growth of Cn1c(=O)c2c(ncn2CC(O)CO)n(C)c1=O (configuration not stated) , thanks.
// result 0.952

// query Need normalized growth of CN(C)CCN(Cc1cccs1)c1ccccn1 , thanks.
// result 0.82

* * *

Experiment: chemical genetic growth profiling, strain panel (AID 1159580)
Conditions: S. cerevisiae deletion strains, growth OD, locus YLR027C, strain aat2, hits give low values
The campaign covered roughly 5,500 compounds. About 2,000 (36%) were called active. Not shown: some 18% with an inconclusive outcome. The list shows a part of the results.
Reported normalized growth by item:

Take a look at these entries with their results.
| COMPOUND | normalized growth |
| --- | --- |
| O=c1cccc2ccc(O)c(O)c2c1O | 0.897 (active) |
| COc1ccc(CN(CCN(C)C)c2ccccn2)cc1 | 1.02 (inactive) |
| C[C@@H]1CC(Cl)CC[C@H]1C(=O)OC(C)(C)C (stereo not given in full) | 0.982 (inactive) |
| CN(C)CCN(Cc1ccccc1)c1ccccn1 | 1.01 (inactive) |
| CCCCCCCCCCC[C@@H](C[C@H]1OC(=O)[C@H]1CCCCCC)OC(=O)[C@@H](CC(C)C)NC=O | 1.03 (inactive) |
| CCCCCCCCCCCCCc1ccco1 | 0.939 (inactive) |
| NS(=O)(=O)c1cc2c(cc1Cl)NC=NS2(=O)=O | 1.01 (inactive) |
| CN(C)CCN(Cc1cccs1)c1ccccn1 | 1.01 (inactive) |
| C#CCCCCCCCCCCCc1ccco1 | 0.985 (inactive) |

# evaluate next
// query Need normalized growth of Cc1ccc(C(=O)Nc2ccc(S(=O)(=O)O)c3cc(S(=O)(=O)O)cc(S(=O)(=O)O)c23)cc1NC(=O)c1cccc(NC(=O)Nc2cccc(C(=O)Nc3cc(C(=O)Nc4ccc(S(=O)(=O)O)c5cc(S(=O)(=O)O)cc(S(=O)(=O)O)c45)ccc3C)c2)c1 , thanks.
// result 1.02 (inactive)

* * *

Test: chemical genetic growth profiling, strain panel (AID 1159580)
Conditions: S. cerevisiae deletion strains, growth OD, locus YGL248W, strain PDE1, hits give low values
In all, about 5,500 compounds went through this assay and about 2,000 (36%) were called active. Another 18% or so got no clear call; they are omitted. Some of the results follow.
The label 1 (yes) is reserved for normalized growth strictly under 1; 0 (no) covers values equal to or above it.

| MOLECULAR STRING | ASSIGNED LABEL |
| --- | --- |
| COc1ccc([C@H]2Oc3c(I)c(OC)cc(OC)c3C[C@@H]2O)cc1OC | 0 (no) |
| CC[C@@]1(O)C[C@H](O)c2c(cc3c(c2O)C(=O)c2c(O)ccc(O)c2C3=O)[C@H]1C(=O)OC | 1 (yes) |
| CC[C@@]1(O)C[C@H](O[C@H]2C[C@H](N(C)C)[C@H](O)[C@H](C)O2)c2c(cc3c(c2O)C(=O)c2c(O)ccc(O)c2C3=O)[C@H]1C(=O)OC | 1 (yes) |

Here is the next item to consider.
// query normalized growth strictly < 1 for this compound? CC[C@@]1(O)C[C@H](O[C@H]2C[C@H](N(C)C)[C@H](O)[C@H](C)O2)c2c(cc3c(c2O)C(=O)c2c(O)cccc2C3=O)[C@H]1C(=O)OC
// result 1 (yes)

* * *

Assay: chemical genetic growth profiling, strain panel (AID 1159580);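 also: tested at 20 µM; growth read once vehicle control cultures reached saturation at 30 °C; 1 = growth at the plate median or of vehicle wells; lower values mean less growth of the strain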
Details: S. cerevisiae deletion strains, growth OD, locus YLL026W, hits give low values
Screen size: about 5,500 compounds; about 2,000 (36%) were called active. Roughly 18% stayed inconclusive and do not appear here. The list shows a part of the results.
OBSERVED PROPERTY: normalized growth

Take a look at these entries with their results.
| MOLECULE | EXPERIMENTAL RESULT |
| --- | --- |
| O=C1C(Cl)=C(Cl)C(=O)C(Cl)=C1Cl | 0.98 (inactive) |
| CN(C)CCN(Cc1cccs1)c1ccccn1 | 1 (inactive) |
| CN1C2CCC1CC(OC(c1ccccc1)c1ccccc1N)C2 (stereo unspecified) | 0.982 (inactive) |
| COc1ccc(CN(CCN(C)C)c2ccccn2)cc1 | 1.02 (inactive) |
| CCCCCCCCC(=O)NCc1ccc(O)c(OC)c1 | 1 (inactive) |

# evaluate next
// query Need normalized growth of O=S(=O)(O)c1cc(N=C=S)ccc1/C=C/c1ccc(N=C=S)cc1S(=O)(=O)O , thanks.
// result 1.01 (inactive)

* * *

Test: chemical genetic growth profiling, strain panel (AID 1159580);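 also: tested at 20 µM; growth read once vehicle control cultures reached saturation at 30 °C; 1 = growth at the plate median or of vehicle wells; lower values mean less growth of the strain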
Settings: S. cerevisiae deletion strains, growth OD, locus YJL187C, strain SWE1, hits give low values
About 2,000 (36%) of roughly 5,500 compounds were called active. Inconclusive results (about 18%) are left out. Some of the results follow.
Reported normalized growth by item:
Could you keep your reply to the number by itself?

| COMPOUND | OBSERVED PROPERTY | EXPERIMENTAL RESULT |
| --- | --- | --- |
| O=C(O[C@@H]1Cc2c(O)cc(O)cc2O[C@@H]1c1ccc(O)c(O)c1)c1cc(O)c(O)c(O)c1 | normalized growth | 0.988 |

// query Need normalized growth of O=C(O[C@@H]1Cc2c(O)cc(O)cc2O[C@@H]1c1cc(O)c(O)c(O)c1)c1cc(O)c(O)c(O)c1 , thanks.
// result 0.837

// query Need normalized growth of CCCOc1ccccc1/C=N\NC(=S)Nc1cccc(F)c1 , thanks.
// result 1

// query Need normalized growth of COc1ccc(-c2coc3cc(O)ccc3c2=O)cc1 , thanks.
// result 0.984

// query Need normalized growth of Cc1ccc(C)n1-c1ccc(C(=O)NNS(=O)(=O)c2ccc(Cl)cc2)cc1 , thanks.
// result 1.02

// query Need normalized growth of Cc1ccc(C)n1-c1ccc(C(=O)NNC(=O)c2ccc3nccnc3c2)cc1 , thanks.
// result 0.979

// query Need normalized growth of Nc1nc(=S)c2[nH]cnc2[nH]1 , thanks.
// result 0.981

// query Need normalized growth of CCC(C)C(=O)O[C@@H]1C[C@@]2(C)[C@H](c3ccoc3)OC(=O)CC23OC2(C)OC34[C@H](OC(=O)C(C)C)[C@@]3(O)[C@@H](OC(=O)C5(C)OC5C)[C@@]5(C)C[C@]3(O)[C@@](C)([C@H]5CC(=O)OC)C14O2 (some centres undefined) , thanks.
// result 1

// query Need normalized growth of COc1ccc(-c2coc3cc(O)ccc3c2=O)c(OC)c1O , thanks.
// result 0.979

* * *

Assay: chemical genetic growth profiling, strain panel (AID 1159580);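 also: tested at 20 µM; growth read once vehicle control cultures reached saturation at 30 °C; 1 = growth at the plate median or of vehicle wells; lower values mean less growth of the strain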
Settings: S. cerevisiae deletion strains, growth OD, locus YBR229C, strain ROT2
Out of some 5,500 compounds screened, about 2,000 (36%) were called active. Another 18% or so got no clear call; they are omitted. No stated cut-off is given here; in the data, active means normalized growth mostly below about 0.91 (no sharp cut-off); inconclusive means no clear call, values can overlap the other calls; inactive means mostly above about 0.92. The list shows a part of the results.
Lab note: assign the record to one of active, inactive

Sample answers from the record:
| MOLECULAR STRING | ASSIGNED LABEL |
| --- | --- |
| O=[N+]([O-])c1ccc(N2CCCCC2)nc1N1CCCCC1 | inactive |
| CN1C2C[C@H](OC(=O)[C@H](CO)c3ccccc3)C[C@H]1[C@@H](O)C2 | inactive |
| S=C1NCN(CCN2CCCC2)CN1 | inactive |
| CCCCCCCCCCCCN1CNC(=S)NC1 | active |
| NS(=O)(=O)c1cc2c(cc1Cl)NC=NS2(=O)=O | inactive |

Here is the next item to consider.
// query Could you kindly confirm the outcome this assay logged for CC[C@@]1(O)C[C@H](O[C@H]2C[C@H](N(C)C)[C@H](O)[C@H](C)O2)c2c(cc3c(c2O)C(=O)c2c(O)cccc2C3=O)[C@H]1C(=O)OC ?
// result inactive
